Item-by-item account of pIC50
Assay: Inhibition of Escherichia coli DNA topoisomerase 4 using kDNA as substrate after 1 hr by agarose gel electrophoresis
Note: pIC50 values are expressed as the negative base-10 logarithm of concentration in M.

Reference set (3 entries):
In: Report pIC50 for O=C(O)c1cn(C2CC2)c2cc(N3CCNCC3)c(F)cc2c1=O
Out: 4.10

In: Report pIC50 for O=C(O)c1cn(C2CC2)c2cc(N3CCN(Cn4nc(-c5cccc(O)c5)n(-c5cc(Cl)cc(Cl)c5)c4=S)CC3)c(F)cc2c1=O
Out: 4.10

In: Report pIC50 for CCCc1nn(CN2CCN(c3cc4c(cc3F)c(=O)c(C(=O)O)cn4C3CC3)CC2)c(=S)n1-c1cccc(I)c1
Out: 3.81

***
In: Report pIC50 for O=C(O)c1cn(C2CC2)c2cc(N3CCN(Cn4nc(-c5cccc(O)c5)n(-c5cccc(I)c5)c4=S)CC3)c(F)cc2c1=O
Out: 4.11

* * *

Item-by-item account of log10(MIC)
Tested on: Bacillus subtilis
Assay: Antimicrobial activity against Bacillus subtilis […] after 18 hrs by broth microdilution method
Type: functional
Lab note - MIC converted to log10 from values in µM.

In: Report log10(MIC) for O=C(O)c1cn(C2CC2)c2cc(N3CCN(Cn4nc(-c5cccc(O)c5)n(Cc5ccc(F)cc5)c4=S)CC3)c(F)cc2c1=O
Out: -1.64

In: Report log10(MIC) for O=C(O)c1cn(C2CC2)c2cc(N3CCN(Cn4nc(-c5ccccc5O)n(Cc5ccc(Cl)cc5)c4=S)CC3)c(F)cc2c1=O
Out: -1.35

In: Report log10(MIC) for O=C(O)c1cn(C2CC2)c2cc(N3CCN(Cn4nc(-c5cccc(O)c5)n(-c5ccc(F)cc5)c4=S)CC3)c(F)cc2c1=O
Out: -1.02

In: Report log10(MIC) for COc1ccc(Cn2c(-c3ccccc3O)nn(CN3CCN(c4cc5c(cc4F)c(=O)c(C(=O)O)cn5C4CC4)CC3)c2=S)cc1
Out: -1.96

In: Report log10(MIC) for COc1ccc(-n2c(-c3cccc(O)c3)nn(CN3CCN(c4cc5c(cc4F)c(=O)c(C(=O)O)cn5C4CC4)CC3)c2=S)cc1
Out: -0.43

In: Report log10(MIC) for O=C(O)c1cn(C2CC2)c2cc(N3CCN(Cn4nc(-c5ccc(O)cc5)n(-c5ccc(Cl)cc5)c4=S)CC3)c(F)cc2c1=O
Out: -1.34

***
In: Report log10(MIC) for O=C(O)c1cn(C2CC2)c2cc(N3CCN(Cn4nc(-c5ccccc5O)n(-c5ccc(F)cc5)c4=S)CC3)c(F)cc2c1=O
Out: -0.72

In: Report log10(MIC) for O=C(O)c1cn(C2CC2)c2cc(N3CCN(Cn4nc(-c5cccc(O)c5)n(-c5ccc(Cl)cc5)c4=S)CC3)c(F)cc2c1=O
Out: -1.03

In: Report log10(MIC) for COc1ccc(Cn2c(-c3ccc(O)cc3)nn(CN3CCN(c4cc5c(cc4F)c(=O)c(C(=O)O)cn5C4CC4)CC3)c2=S)cc1
Out: -0.74

In: Report log10(MIC) for COc1ccc(-n2c(-c3ccc(O)cc3)nn(CN3CCN(c4cc5c(cc4F)c(=O)c(C(=O)O)cn5C4CC4)CC3)c2=S)cc1
Out: -1.64

In: Report log10(MIC) for O=C(O)c1cn(C2CC2)c2cc(N3CCN(Cn4nc(-c5cccc(O)c5)n(Cc5ccc(Cl)cc5)c4=S)CC3)c(F)cc2c1=O
Out: -0.74

* * *

Item-by-item account of MIC
Test system: Proteus mirabilis
Experiment: Antimicrobial activity against Proteus mirabilis ATCC 12453 after 18 hrs by broth microdilution method
Type: functional
Settings: ATCC 12453, 18 h
Reply with just the number (in µM).

In: Fill: MIC (Proteus mirabilis) for this compound COc1ccc(-n2c(-c3ccccc3O)nn(CN3CCN(c4cc5c(cc4F)c(=O)c(C(=O)O)cn5C4CC4)CC3)c2=S)cc1
Out: 0.047

In: Fill: MIC (Proteus mirabilis) for this compound O=C(O)c1cn(C2CC2)c2cc(N3CCN(Cn4nc(-c5ccccc5O)n(Cc5ccc(Cl)cc5)c4=S)CC3)c(F)cc2c1=O
Out: 0.046

In: Fill: MIC (Proteus mirabilis) for this compound O=C(O)c1cn(C2CC2)c2cc(N3CCN(Cn4nc(-c5ccccc5O)n(Cc5ccccc5)c4=S)CC3)c(F)cc2c1=O
Out: 0.024

In: Fill: MIC (Proteus mirabilis) for this compound O=C(O)c1cn(C2CC2)c2cc(N3CCN(Cn4nc(-c5ccccc5O)n(-c5ccc(F)cc5)c4=S)CC3)c(F)cc2c1=O
Out: 0.024

In: Fill: MIC (Proteus mirabilis) for this compound O=C(O)c1cn(C2CC2)c2cc(N3CCN(Cn4nc(-c5cccc(O)c5)n(Cc5ccc(Cl)cc5)c4=S)CC3)c(F)cc2c1=O
Out: 0.023

In: Fill: MIC (Proteus mirabilis) for this compound O=C(O)c1cn(C2CC2)c2cc(N3CCN(Cn4nc(-c5cccc(O)c5)n(-c5ccc(Cl)cc5)c4=S)CC3)c(F)cc2c1=O
Out: 0.024

***
In: Fill: MIC (Proteus mirabilis) for this compound O=C(O)c1cn(C2CC2)c2cc(N3CCNCC3)c(F)cc2c1=O [CIPROFLOXACIN]
Out: 0.045

In: Fill: MIC (Proteus mirabilis) for this compound COc1ccc(-n2c(-c3ccc(O)cc3)nn(CN3CCN(c4cc5c(cc4F)c(=O)c(C(=O)O)cn5C4CC4)CC3)c2=S)cc1
Out: 0.023

* * *

Test system: Proteus mirabilis
Assay: Antimicrobial activity against Proteus mirabilis ATCC 12453 after 18 hrs by broth microdilution method
Format: functional
Conditions: ATCC 12453, 18 h
READOUT_TYPE: MIC (µM)
Reply with just the number (in µM).

Reference set (3 entries):
In: Report MIC for O=C(O)c1cn(C2CC2)c2cc(N3CCN(Cn4nc(-c5ccc(O)cc5)n(-c5ccc(Cl)cc5)c4=S)CC3)c(F)cc2c1=O
Out: 0.012

In: Report MIC for COc1ccc(Cn2c(-c3cccc(O)c3)nn(CN3CCN(c4cc5c(cc4F)c(=O)c(C(=O)O)cn5C4CC4)CC3)c2=S)cc1
Out: 0.023

In: Report MIC for COc1ccc(Cn2c(-c3ccccc3O)nn(CN3CCN(c4cc5c(cc4F)c(=O)c(C(=O)O)cn5C4CC4)CC3)c2=S)cc1
Out: 0.023

Now for a further compound.
In: Report MIC for O=C(O)c1cn(C2CC2)c2cc(N3CCN(Cn4nc(-c5ccccc5O)n(-c5ccc(Cl)cc5)c4=S)CC3)c(F)cc2c1=O
Out: 0.011

* * *

Tested on: Staphylococcus epidermidis
Assay: Antimicrobial activity against Staphylococcus epidermidis ATCC 12228 after 18 hrs by broth microdilution method
Type: functional
Settings: ATCC 12228, 18 h
Item-by-item account of MIC
Reply with just the number (in µM).

In: Report MIC for O=C(O)c1cn(C2CC2)c2cc(N3CCN(Cn4nc(-c5ccccc5O)n(-c5ccc(Cl)cc5)c4=S)CC3)c(F)cc2c1=O
Out: 0.18

In: Report MIC for COc1ccc(-n2c(-c3cccc(O)c3)nn(CN3CCN(c4cc5c(cc4F)c(=O)c(C(=O)O)cn5C4CC4)CC3)c2=S)cc1
Out: 0.19

In: Report MIC for O=C(O)c1cn(C2CC2)c2cc(N3CCN(Cn4nc(-c5ccc(O)cc5)n(-c5ccccc5)c4=S)CC3)c(F)cc2c1=O
Out: 0.098

In: Report MIC for O=C(O)c1cn(C2CC2)c2cc(N3CCN(Cn4nc(-c5ccccc5O)n(Cc5ccc(Cl)cc5)c4=S)CC3)c(F)cc2c1=O
Out: 0.091

In: Report MIC for O=C(O)c1cn(C2CC2)c2cc(N3CCN(Cn4nc(-c5cccc(O)c5)n(-c5ccc(F)cc5)c4=S)CC3)c(F)cc2c1=O
Out: 0.19

***
In: Report MIC for O=C(O)c1cn(C2CC2)c2cc(N3CCN(Cn4nc(-c5cccc(O)c5)n(-c5ccccc5)c4=S)CC3)c(F)cc2c1=O
Out: 0.19

In: Report MIC for O=C(O)c1cn(C2CC2)c2cc(N3CCN(Cn4nc(-c5cccc(O)c5)n(Cc5ccc(Cl)cc5)c4=S)CC3)c(F)cc2c1=O
Out: 0.18

* * *

System: Bacillus subtilis
Assay: Antimicrobial activity against Bacillus subtilis […] after 18 hrs by broth microdilution method
Assay type: functional
READOUT_TYPE: MIC (µM)
Reply with just the number (in µM).

Reference set (3 entries):
In: Report MIC for O=C(O)c1cn(C2CC2)c2cc(N3CCNCC3)c(F)cc2c1=O
Out: 0.09

In: Report MIC for O=C(O)c1cn(C2CC2)c2cc(N3CCN(Cn4nc(-c5cccc(O)c5)n(Cc5ccccc5)c4=S)CC3)c(F)cc2c1=O
Out: 0.048

In: Report MIC for COc1ccc(Cn2c(-c3cccc(O)c3)nn(CN3CCN(c4cc5c(cc4F)c(=O)c(C(=O)O)cn5C4CC4)CC3)c2=S)cc1
Out: 0.091

Now for a further compound.
In: Report MIC for O=C(O)c1cn(C2CC2)c2cc(N3CCN(Cn4nc(-c5ccccc5O)n(-c5ccc(Cl)cc5)c4=S)CC3)c(F)cc2c1=O
Out: 0.093

The origin of these recorded values is ChEMBL document CHEMBL3421560.
